src = ChEMBL document CHEMBL1961873

Target: Serine/threonine-protein kinase 3 (Homo sapiens);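 further: each value is the mean inhibition of MST2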
Sequence (whole entry): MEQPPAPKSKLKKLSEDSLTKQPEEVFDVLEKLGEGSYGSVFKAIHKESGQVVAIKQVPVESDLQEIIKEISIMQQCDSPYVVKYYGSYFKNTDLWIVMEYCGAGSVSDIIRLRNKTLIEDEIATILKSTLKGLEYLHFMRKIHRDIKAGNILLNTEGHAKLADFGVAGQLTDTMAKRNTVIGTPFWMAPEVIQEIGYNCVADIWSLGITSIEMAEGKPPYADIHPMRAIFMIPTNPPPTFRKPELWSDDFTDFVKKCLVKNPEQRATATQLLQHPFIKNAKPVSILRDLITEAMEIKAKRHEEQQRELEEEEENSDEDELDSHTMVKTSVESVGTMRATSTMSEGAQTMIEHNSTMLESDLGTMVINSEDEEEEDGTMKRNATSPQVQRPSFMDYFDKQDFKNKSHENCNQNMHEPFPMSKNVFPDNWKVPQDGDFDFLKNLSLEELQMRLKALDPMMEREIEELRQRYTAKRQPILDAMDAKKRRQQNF
Details: at 1 µM
quantity.kind: inhibition (%)

1. N#Cc1c(NC(=O)CN2CCOCC2)sc2c1CCCC2 = 8.26
2. CN1CCC(n2cnc(-c3ccc(F)cc3)c2-c2ccnc(N)n2)CC1 = 6.77
3. COC(=O)c1sc(-n2cnc3cc(OC)c(OC)cc32)cc1OCc1ccccc1C(F)(F)F = 9.15
4. COc1cccc(-n2ncc3c(N/N=C/c4ccc(F)cc4)ncnc32)c1 = 9.98
5. COc1ccc2[nH]c3c4[nH]c5ccc(OC)cc5c4c4c(c3c2c1)C(=O)NC4=O = 42.4
6. FC(F)(F)c1cccc(-c2nn3ncccc3c2-c2ccnc(Nc3ccc4c(c3)OCCO4)n2)c1 = 4.99
7. COc1ccc(-c2cc(-c3c[nH]nc3-c3ccccn3)ccn2)cc1 = 10.1
8. Cc1cccc2c1NC(=O)/C2=N\Nc1ccc(S(N)(=O)=O)cc1 = 15.2
9. CCOc1ccc2c(-c3ccnc(Nc4cccc(C(F)(F)F)c4)n3)cnn2n1 = 6.48
10. CNC(=O)c1cc(-c2ccc(F)cc2)cc(-c2ccc(S(=O)(=O)N3CCCC3)cc2)c1N = 1.3
11. Fc1ccc(-c2nn3ncccc3c2-c2ccnc(Nc3ccc4c(c3)OCCO4)n2)cc1 = 3.21
12. Cc1ccc(O)cc1Nc1ccnc2cc(-c3ccccn3)ccc12 = 6.61
13. c1cc(-c2cnn3nc(N4CCOCC4)ccc23)nc(NC2CC2)n1 = 8.11
14. CC(C)COC(=O)c1ccc2c(c1)/C(=C/Nc1ccc(S(N)(=O)=O)cc1)C(=O)N2 = 77.9
15. CN(C)CCOc1ccc(-c2nc(-c3ccncc3)c(-c3ccc4c(c3)CC/C4=N\O)[nH]2)cc1 = 4.58
16. CCn1c(-c2nonc2N)nc2c(C#CC(C)(C)O)ncc(OC3CCNCC3)c21 = 6.04
17. CN1CCC(n2cnc(-c3ccc(F)cc3)c2-c2ccnc(Nc3ccccc3)n2)CC1 = 3.6
18. NC(=O)c1sc(-n2cnc3ccc(C(F)(F)F)cc32)cc1OCc1ccccc1Br = 4.74
19. Cc1ccc2c(-c3ccnc(Nc4ccccc4)n3)c(-c3ccc(F)cc3)nn2n1 = 5.67
20. COc1cccc(-c2c[nH]c3c(N/N=C/c4ccncc4)ncnc23)c1 = 13.2
21. CC(=O)NCc1cccc(C#Cc2cncnc2Nc2ccc(OCc3cccc(F)c3)c(Cl)c2)c1 = 3.55
22. COc1cc2ncn(-c3cc(OCc4ccccc4C(F)(F)F)c(C(=O)N(C)C)s3)c2cc1OC = 4.03
23. Fc1ccc(-c2cc(-c3c[nH]nc3-c3ccccn3)ccn2)cc1 = 7.79
24. CCCN1CCC(c2ccc(Nc3nc(Nc4cc(F)ccc4C(N)=O)c4cc[nH]c4n3)c(OC)c2)CC1 = 13.8
25. CC(=O)Nc1cccc(C#Cc2cncnc2Nc2ccc(OCc3cccc(F)c3)c(Cl)c2)c1 = 2.1
26. CS(=O)(=O)CCNCc1ccc(-c2ccc3ncnc(Nc4ccc(OCc5ccccc5)c(C(F)(F)F)c4)c3c2)o1 = 4.03
27. COc1ccc(-c2cc3c(N)ncnc3o2)cc1 = -0.72
